system: LOX IMVI melanoma; assay: NCI tumour cell line growth inhibition, 48 h; in the data active = GI50 below about 0.43 µM; inactive = the rest
Outcome codes: yes (1) (active), no (0) (inactive)

- compound: "CC(=O)C1=C(C)N(Cc2ccccc2)C2(O)C=CC(=O)C3=C(O)c4ccccc4C(=O)C312 (stereo not given)"
  group: "no (0)"
- compound: "C=CCc1c(O)c(C(=O)/C=C/c2ccc(Cl)cc2)c(OC)c2ccoc12"
  group: "no (0)"
- compound: "COc1c(C(N)=O)cc(-c2ccc(Cl)cc2)cc1-c1ccc(S(N)(=O)=O)cc1"
  group: "no (0)"
- compound: "COC(=O)Nc1nc2ccc(C(=O)c3cccc(I)c3)cc2[nH]1"
  group: "yes (1)"
- compound: "CC1=CC2(C)/C=C(C)/C=C\\CC(O)/C=C3/C=CC(=C4C(=O)OC2(CC1C)C4=O)OC3 (stereo not given)"
  group: "no (0)"
- compound: "CCN1CCN(c2ccc(NC(=O)Nc3nc4ccc(-c5ccccc5OC)cc4s3)cc2)CC1"
  group: "no (0)"
- compound: "COc1ccc(C(=O)/C=C/c2ccc(OCc3cccc(C(F)(F)F)c3)c(OC)c2)cc1OC"
  group: "no (0)"
- compound: "Cc1[nH]nc(C(F)(F)F)c1Cc1sc2c(c1C(=O)N1C[C@](C)(O)CO1)c(=O)n(C)c(=O)n2C(C)C"
  group: "no (0)"
- compound: "COc1cccc(N2CC(O)=C(c3nc4ccccc4s3)C2=N)c1"
  group: "no (0)"
- compound: "Cn1nc(C(F)(F)F)cc1-c1cc(Cl)c(OCc2ccc(Cl)cc2)c(-c2ccc(Cl)c(C(F)(F)F)c2)c1O"
  group: "no (0)"
- compound: "CC1Cc2c(Cl)ncnc2N(C)c2ccccc21 (stereo not given)"
  group: "no (0)"
- compound: "Cc1cc(OCc2ccc(C(F)(F)F)cc2)c2c(c1)C(=O)C=C(NCCN1CCCC1)C2=O"
  group: "no (0)"
- compound: "Clc1cnc(Nc2ccc(OCCN3CCCC3)cc2)nc1NCc1ccco1"
  group: "no (0)"
- compound: "NS(=O)(=O)c1ccc(-n2nc3c(c2-c2cccs2)Cc2ccccc2-3)cc1"
  group: "no (0)"
- compound: "Nc1nc(N)c2c(ccc3c2ccn3Cc2cccc([N+](=O)[O-])c2)n1"
  group: "yes (1)"
